# experimental.system: T1, PLC-γ1 (Phospholipase C-γ1), 1–1219 (UniProt P19174 1-1219)
# T1 chain: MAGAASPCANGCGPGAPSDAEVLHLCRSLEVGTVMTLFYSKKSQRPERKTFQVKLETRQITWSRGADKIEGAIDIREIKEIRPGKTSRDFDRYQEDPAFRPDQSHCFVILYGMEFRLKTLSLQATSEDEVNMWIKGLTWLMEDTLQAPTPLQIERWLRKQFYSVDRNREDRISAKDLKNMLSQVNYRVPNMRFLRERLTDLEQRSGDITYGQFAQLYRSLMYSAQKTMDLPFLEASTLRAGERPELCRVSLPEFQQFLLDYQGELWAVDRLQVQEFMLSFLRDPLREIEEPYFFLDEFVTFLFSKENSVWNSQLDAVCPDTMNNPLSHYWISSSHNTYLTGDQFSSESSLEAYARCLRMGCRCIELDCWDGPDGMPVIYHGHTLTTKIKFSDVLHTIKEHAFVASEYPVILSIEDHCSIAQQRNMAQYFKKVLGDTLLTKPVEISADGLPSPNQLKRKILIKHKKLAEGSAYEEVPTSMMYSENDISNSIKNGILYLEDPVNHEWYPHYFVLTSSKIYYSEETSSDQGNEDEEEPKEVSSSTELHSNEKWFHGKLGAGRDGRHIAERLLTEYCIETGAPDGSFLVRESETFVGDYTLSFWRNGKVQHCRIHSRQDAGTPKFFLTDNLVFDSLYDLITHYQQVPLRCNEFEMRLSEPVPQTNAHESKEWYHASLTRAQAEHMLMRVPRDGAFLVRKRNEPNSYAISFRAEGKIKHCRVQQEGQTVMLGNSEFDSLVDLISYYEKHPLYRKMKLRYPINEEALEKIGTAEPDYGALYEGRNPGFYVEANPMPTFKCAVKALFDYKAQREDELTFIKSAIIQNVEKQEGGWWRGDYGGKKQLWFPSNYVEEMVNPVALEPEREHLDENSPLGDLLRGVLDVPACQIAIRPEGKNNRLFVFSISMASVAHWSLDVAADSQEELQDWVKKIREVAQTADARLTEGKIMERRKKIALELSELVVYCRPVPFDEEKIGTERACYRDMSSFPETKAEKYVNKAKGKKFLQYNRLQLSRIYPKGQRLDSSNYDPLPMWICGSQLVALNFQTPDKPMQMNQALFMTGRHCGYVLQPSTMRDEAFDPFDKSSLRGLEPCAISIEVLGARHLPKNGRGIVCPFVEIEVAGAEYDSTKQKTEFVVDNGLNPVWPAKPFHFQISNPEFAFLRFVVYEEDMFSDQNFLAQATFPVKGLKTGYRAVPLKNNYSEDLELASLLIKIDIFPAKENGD
# protocol.summary: ITC
result.type: pKd
A value of pKd is the negative decimal logarithm of a concentration given in moles per litre.

Q: Recall and state the measured pKd for QPPVPPQRPMAALPPP [SLP-76 PRR peptide (aa 185–200), wild type] .
A: 5.63
